For each entry below, report its protein stability index value.
# experimentSummary: protein stability index of a GFP-peptide fusion (GPS, HEK-293T) (PSI 1-6); higher = more stable;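 note: 24-mer peptide tiles fused after GFP, lentivirally expressed, FACS-sorted into six equal bins by GFP/DsRed ratio, decoded by Illumina sequencing, PSI is the read-weighted mean bin number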
# conditionNotes: treatment: MLN4924 1 uM, 8 h; c terminus: a fixed tail appended
A bare number is all that is needed in reply.

Q: Return the recorded protein stability index value; entry: FYSQEWYARQHCPLKNPTFLDYVR [SOAT1]
A: 2.13

Q: Return the recorded protein stability index value; entry: LTISPKAARVGLLQYSTQVHTEFT [MATN2]
A: 2.44

Q: Return the recorded protein stability index value; entry: CAVMNVVFITILIIALIALSVGQY [CD69]
A: 2.47

Q: Return the recorded protein stability index value; entry: AVARSPKRPAWGSRRFEAVGWWAL [POMT2]
A: 2.49

Q: Return the recorded protein stability index value; entry: DAAEEEKYDMEVRVQKTSKELEDM [TNNI2]
A: 5.46

Q: Return the recorded protein stability index value; entry: WQLFLAHNIPLETIIPILQHLKYK [INTS3]
A: 2.63

Q: Return the recorded protein stability index value; entry: MGQVLPVFAHCKEAPSTASSTPDS [RTN2]
A: 4.83

Q: Return the recorded protein stability index value; entry: LHYAAASDMDRNKTILGNAHDNSE [ANKRD44]
A: 4.9

Q: Return the recorded protein stability index value; entry: VEFNHTGELLATGDKGGRVVIFQR [PPP2R2C]
A: 2.85

Q: Return the recorded protein stability index value; entry: APQNSFSAKLAPHYFHSISYKIEE [KCNK9]
A: 3.34

Q: Return the recorded protein stability index value; entry: LIRYICGVVHPSNEVLSSDILPRW [INTS3]
A: 2.56

Q: Return the recorded protein stability index value; entry: VYMFKNGSGDSGDSSEEESHRVVL [LYSMD4]
A: 3.33

Q: Return the recorded protein stability index value; entry: RRFNFFVLENNLEAVARHMLIFSL [DNAAF3]
A: 2.6
